Biological target: T1, TNF-α (UniProt P01375 77-233, limits assumed)
T1 construct: also called tumor necrosis factor; ligand
T1 sequence (P01375 77-233 limits assumed): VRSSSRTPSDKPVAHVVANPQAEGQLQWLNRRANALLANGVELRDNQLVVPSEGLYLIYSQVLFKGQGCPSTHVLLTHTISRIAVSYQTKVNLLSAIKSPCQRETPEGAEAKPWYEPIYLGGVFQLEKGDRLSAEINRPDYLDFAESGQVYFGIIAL
Experiment: competition ELISA: sample vs plate-bound TNFRI190 for TNF-α, from IC50, relative to wild-type TNFRI126
measured-quantity: Affinity (%)

TNFRI126-A18 (receptor, Met-TNFRI126 mutant made in E. coli) MDSVCPQGKYIHPQNNSICCTKCHKGTYLYNDCPGPGQDTDCRECESGSFTAHENFLPACLSCSKCRKEMGQVEISSCTVDRDTVCGCRKNQYRHYWSENLFQCFNCSLCLNGTVHLSCQEKQNTVC | 1010
TNFRI126-A30 (receptor, Met-TNFRI126 mutant made in E. coli) MDSVCPQGKYIHPQNNSICCTKCHKGTYLYNDCPGPGQDTDCRECESGSFTAIPNFLPACLSCSKCRKEMGQVEISSCTVDRDTVCGCRKNQYRHYWSENLFQCFNCSLCLNGTVHLSCQEKQNTVC | 952

a: TNFRI126-A1 (receptor, Met-TNFRI126 mutant made in E. coli) MDSVCPQGKYIHPQNNSICCTKCHKGTYLYNDCPGPGQDTDCRECESGSFTASENFLPACLSCSKCRKEMGQVEISSCTVDRDTVCGCRKNQYRHYWSENLFQCFNCSLCLNGTVHLSCQEKQNTVC
b: TNFRI126-A17 (receptor, Met-TNFRI126 mutant made in E. coli) MDSVCPQGKYIHPQNNSICCTKCHKGTYLYNDCPGPGQDTDCRECESGSFTARENFLPACLSCSKCRKEMGQVEISSCTVDRDTVCGCRKNQYRHYWSENLFQCFNCSLCLNGTVHLSCQEKQNTVC
Inquiry: Could you kindly indicate whether a or b has the higher Affinity (%) value? # respond with the chosen item's label
Reply text: b
